Assign GI50 to each entry below.
# Tested on: NCI-H23 lung
# procedure-text: NCI tumour cell line growth inhibition, 48 h

// query GI50 value for entry Cc1ccccc1-n1c(/C=C\c2ccccn2)nc2ccccc2c1=O
6.06 µM

Field entry: CCCCCC(=O)OCC(=O)O[C@@H]1C[C@]2(C(C)C)O[C@@]1(C)[C@@H]1CC[C@@H](C)[C@H]1[C@@H]2OC(=O)/C=C/c1ccccc1
> 52.8 µM

Field entry: Oc1ccc(/C=N/Nc2nc3ccccc3s2)c(O)c1
3.03 µM

Field entry: C#CCOc1ccc2ncnc(Nc3ccc(NC(=O)CCl)cc3)c2c1
3.85 µM

Field entry: COc1cc(C2CC(c3ccc4c(c3)OCO4)=NN2C(C)=O)cc(OC)c1OC (stereo not given)
1.81 µM

Field entry: Cc1[nH]nc2c1N=C(c1ccccc1F)c1cc(C#N)ccc1N2
3.74 µM

Field entry: CC(F)(F)c1cc(F)ccc1-c1sc2cc(O)ccc2c1Oc1ccc(/C=C/C(=O)O)cc1
15.2 µM

Field entry: Cc1c2ncccc2nc2[nH]c3ccc(OCCN(C)C)cc3c12
2.54 µM

Field entry: CCCCCCCCCCCCOC1C(C(COC2OC(C(O)CN3CCCCC3)C3OC(C)(C)OC23)NC(=O)Nc2ccccc2)OC2OC(C)(C)OC21 (stereo not given)
17.9 µM

Field entry: CCCCCCNC(=O)Oc1ccc(/C(=C(\C)c2ccccc2)c2ccc(OCCN3CCCCC3)cc2)cc1
3.06 µM

----------
# System: HOP-92 NSCLC
# procedure-text: NCI tumour cell line growth inhibition, 48 h
Assign GI50 to each entry below.

// query GI50 value for entry CCOC(=O)N1C/C(=C/c2ccc(OC)cc2)C(=O)/C(=C/c2ccc(OC)cc2)C1
4970 nM

Field entry: COc1ccc2c(c1OC)-c1c(c3ccc([N+](=O)[O-])cc3c(=O)n1CCCN=[N+]=[N-])C2=O
20300 nM

Field entry: COc1ccc2[nH]c(-c3cccc(N(C)C)c3)cc(=O)c2c1
3250 nM

Field entry: C=CC[Se]C(=O)Cc1c(C)n(C(=O)c2ccc(Cl)cc2)c2ccc(OC)cc12
1850 nM

Field entry: Oc1ccc(/C=N/Nc2nc3ccccc3s2)c(O)c1
4460 nM

Field entry: CCn1c(-c2nonc2N)nc2c(C#CC(C)(C)O)nc(O[C@@H](CN)c3ccccc3)cc21
72.7 nM

Field entry: CC[C@@H](C)[C@H]([C@H](CC(=O)N1CCC[C@@H]1[C@@H](OC)[C@H](C)C(=O)N[C@H](Cc1ccccc1)c1nccs1)OC)N(C)C(=O)[C@H](NC(=O)[C@@H](C(C)C)N(C)C)C(C)C
0.425 nM

Field entry: O=C(O)c1ccc(-c2ccc(C(=O)O)cc2I)c(I)c1
> 100000 nM

Field entry: NC(N)=N/N=C/c1cccc(Cl)c1Cl
1190 nM

Field entry: COc1cc2nc(-c3ccc(-n4cncc4-c4ccc(N)cc4)cc3)sc2c(OC)c1OC
446 nM

----------
# System: OVCAR-3 ovarian
# procedure-text: NCI tumour cell line growth inhibition, 48 h; in the data active = GI50 below about 0.43 µM; inactive = the rest
In this exercise, the only acceptable responses are true (1) (active), false (0) (inactive)

Entry COc1cc2nc(-c3ccc(-n4cncc4-c4ccc(N)cc4)cc3)sc2c(OC)c1OC : call = ?
false (0)

Field entry: C[C@H]1CCC/C=C/[C@@H]2C[C@H](O)C[C@H]2[C@H](O)[C@@H](S(=O)CCN)CC(=O)O1 (stereo not given in full)
true (1)

Field entry: CCn1c(-c2nonc2N)nc2c(C#CC(C)(C)O)nc(O[C@@H](CN)c3ccccc3)cc21
true (1)

Field entry: O=C(NCCN1CCOCC1)Nc1ccc(-c2cc3c(Nc4ccc(Oc5cccc(C(F)(F)F)c5)c(Cl)c4)ncnc3s2)cc1
false (0)

Field entry: CCOC(=O)c1cc2cc(NC(=O)c3cc4cc([N+](=O)[O-])ccc4n3C)ccc2n1C
false (0)

Field entry: COc1cnc2c(c1)C(=O)c1c-2n(CCCN2CCNCC2)c(=O)c2cc(Cl)ccc12
false (0)

Field entry: CCCCCCNC(=O)Oc1ccc(/C(=C(\C)c2ccccc2)c2ccc(OCCN3CCCCC3)cc2)cc1
false (0)

Field entry: Oc1ccc(/C=N/Nc2nc3ccccc3s2)c(O)c1
false (0)

Field entry: O=C(CC1(O)C(=O)Nc2ccc(Br)cc21)c1ccc(C(=O)NCC2CCC3(CC2)OOC2(CCCCC2)OO3)cc1 (stereo not given)
false (0)

Field entry: Cc1[nH]nc2c1N=C(c1ccccc1F)c1cc(C#N)ccc1N2
true (1)

----------
# Tested on: SF-539 CNS
# procedure-text: NCI tumour cell line growth inhibition, 48 h
Assign TGI to each entry below.
Value expressed in µM; do not type the unit.

// query TGI value for entry O=C(Nc1cccc(C(F)(F)F)c1)c1cccc(NC2=C(Cl)C(=O)N(Cc3ccccc3)C2=O)c1
62.7

Field entry: OCCSCc1cc2c(O)c(c1)Cc1cc(CSCCO)cc(c1O)Cc1cc(CSCCO)cc(c1O)Cc1cc(CSCCO)cc(c1O)C2
12.6

Field entry: COc1cc(/C=C2\CC3C4CC=C5C[C@@H](N6CCCC6)CC[C@]5(C)C4CC[C@]3(C)[C@H]2OC(C)=O)ccc1OCCN1CCCCC1 (some centres undefined)
3.16

Field entry: O=C(CCCNC(=O)OCc1ccccc1)OCc1ccc2c(c1)C(=O)c1ccccc1C2=O
57.8

Field entry: C=CC[Se]C(=O)Cc1c(C)n(C(=O)c2ccc(Cl)cc2)c2ccc(OC)cc12
3.02

Field entry: CCn1c(-c2nonc2N)nc2c(C#CC(C)(C)O)nc(O[C@@H](CN)c3ccccc3)cc21
0.874

----------
# System: TK-10 renal
# procedure-text: NCI tumour cell line growth inhibition, 48 h; in the data active = GI50 below about 0.43 µM; inactive = the rest
In this exercise, the only acceptable responses are Y for active, N for inactive

Entry CN1CCN(Cc2ccc(NC(=O)c3[nH]ncc3Nc3ncnc4sccc34)cc2)CC1 : call = ?
N

Field entry: Cc1ccc2[nH]c(C(=O)NN3C(=O)CSC34CCCC(C)C4)c(-c3ccccc3)c2c1 (centres undefined)
N

Field entry: COc1cc(/C=C2\CC3C4CC=C5C[C@@H](N6CCCC6)CC[C@]5(C)C4CC[C@]3(C)[C@H]2OC(C)=O)ccc1OCCN1CCCCC1 (some centres undefined)
Y

Field entry: CCCCN(CCCC)CC(C)(C)C(O)c1ccc(OC)c2ccccc12 (centres undefined)
N

Field entry: Cc1ccc(C2SCc3nc4ccc(C(=O)c5ccccc5)cc4n32)cc1 (centres undefined)
N

Field entry: COC(=O)[C@@H](Cc1c[nH]c2ccccc12)NC(=O)/C=C/c1ccccc1
N

Field entry: COc1ccccc1CNC(=O)C1c2ccccc2C(=O)N(CC(C)C)C1c1cccs1 (centres undefined)
N

Field entry: O=C1C(Cl)=C(Nc2cccc(C(F)(F)F)c2)C(=O)N1Cc1ccccc1Cl
N

Field entry: COc1cccc2c1cc([N+](=O)[O-])c1c(C(=O)O)cc3c(c12)OCO3
N

----------
# Tested on: SK-MEL-2 melanoma
# procedure-text: NCI tumour cell line growth inhibition, 48 h; in the data active = GI50 below about 0.43 µM; inactive = the rest
In this exercise, the only acceptable responses are active, inactive

Entry Cc1[nH]nc2c1N=C(c1ccccc1F)c1cc(C#N)ccc1N2 : call = ?
inactive

Field entry: C[C@@H]1CC[C@H]2C(COC/C=C/COCC3=C(C(F)(F)F)O[C@@H]4O[C@@]5(C)CC[C@H]6[C@H](C)CC[C@@H]3[C@@]46OO5)=C(C(F)(F)F)O[C@@H]3O[C@@]4(C)CC[C@@H]1[C@]32OO4
active

Field entry: CCN(Cc1nc2cc(C(F)(F)F)ccc2nc1-c1ccccc1)c1ccc(OC)c(OC)c1
inactive

Field entry: Cc1ccc2[nH]c(C(=O)NN3C(=O)CSC34CCCC(C)C4)c(-c3ccccc3)c2c1 (configuration not stated)
inactive

Field entry: CN1CCN(Cc2ccc(NC(=O)c3[nH]ncc3Nc3ncnc4sccc34)cc2)CC1
active

Field entry: COc1ccc(OC)c(-c2cc(-c3ccccc3)nn2-c2ccc(S(N)(=O)=O)cc2)c1
inactive

Field entry: O=C(Nc1cccc2cccnc12)c1ccc(N2C(=O)[C@@H]3[C@H](C2=O)[C@@H]2C=C[C@H]3C2)cc1
inactive

Field entry: COc1cc(C2CC(c3ccc4c(c3)OCO4)=NN2C(C)=O)cc(OC)c1OC (configuration not stated)
inactive

Field entry: COc1ccc(NC(=O)Nc2ccc(Nc3nc(C)cc(Nc4ccc(C)cc4)n3)cc2)cc1
inactive

Field entry: Cc1c2ncccc2nc2[nH]c3ccc(OCCN(C)C)cc3c12
inactive

Field entry: CCN(CC)CCCCCOc1cc(O)c2c(=O)cc(-c3ccccc3)oc2c1
inactive

Field entry: C=CC[Se]C(=O)Cc1c(C)n(C(=O)c2ccc(Cl)cc2)c2ccc(OC)cc12
inactive

Field entry: COC(=O)[C@@H](Cc1c[nH]c2ccccc12)NC(=O)/C=C/c1ccccc1
inactive

Field entry: CCOC(=O)N1C/C(=C/c2ccc(OC)cc2)C(=O)/C(=C/c2ccc(OC)cc2)C1
inactive

Field entry: O=C(NCCN1CCOCC1)Nc1ccc(-c2cc3c(Nc4ccc(Oc5cccc(C(F)(F)F)c5)c(Cl)c4)ncnc3s2)cc1
inactive

Field entry: COc1ccc2c(c1OC)-c1c(c3ccc([N+](=O)[O-])cc3c(=O)n1CCCN=[N+]=[N-])C2=O
inactive

Field entry: CC1CCC2C(C)C3C(CC4C5CC=C6CC(OC7OC(CO)C(O)C(OC8OC(CO)C(O)C(O)C8O)C7OC7OC(C)C(O)C(O)C7O)CCC6(C)C5CCC43C)N2C1 (configuration not stated)
inactive
